- System: 786-0 renal
- protocol-description: NCI tumour cell line growth inhibition, 48 h
Residues, ends and D or L forms follow the SMILES beside them. *: point of attachment. Boc = CC(C)(C)OC(=O)*; OBn = c1ccc(CO*)cc1
parameter: TGI

{"columns": ["molecule", "assay-value"],
 "data": [
  ["CC(C)(Cl)C(Br)CCC(C)(Br)C(Br)CBr (configuration not stated)", "31.2 µM"],
  ["COc1ccc2c(CCNC(C)=O)c(C(C)=O)[nH]c2c1", "> 100 µM"],
  ["COc1ccc(NC2=NCCO2)c2c1CCCC2", "> 100 µM"],
  ["CCn1c(=O)c(Oc2ccc(F)cc2F)cc2cnc(NC3CCOCC3)nc21", "> 25 µM"],
  ["COC1=CC(=Nc2c(Cl)cc(Cl)cc2OC(=O)c2ccc([N+](=O)[O-])cc2)C=C(OC)C1=O", "28 µM"],
  ["CCC(=O)c1cc(C(=O)C(=S)SC)cc(C(=O)C(=S)SC)c1", "> 100 µM"],
  ["C=C1C(=O)O[C@H]2[C@H]1CC/C(COC(=O)/C=C/C(=O)NCc1ccc(Cn3c(=O)sn(-c4ccccc4)c3=O)cc1)=C\\CC[C@@]1(C)O[C@@H]21", "3.33 µM"],
  ["[N-]=[N+]=NCCCn1c2c(c3cc4c(cc3c1=O)OCO4)C(=O)c1ccccc1-2", "> 100 µM"],
  ["C=CCOC(C)n1c(C)cc(=O)n(C(C)OCC=C)c1=O (configuration not stated)", "> 100 µM"],
  ["O=C1Nc2ccccc2/C1=C\\c1c(Cl)nc2sccn12", "4.94 µM"],
  ["Cc1nn(C(=O)c2ccccc2O)c2c1C(c1ccc3ccccc3c1O)SC(N)=N2 (configuration not stated)", "> 10 µM"],
  ["COc1ccc(O)c(/C=N/NC(=S)N2CCCCC2)c1", "> 78.2 µM"],
  ["C=CCN1CCN([C@H](c2ccc(C(=O)N(CC)CC)cc2)c2cccc(OC)c2)CC1", "> 25 µM"],
  ["CN(C)C1C(=O)C(C(=O)NCN2CCCC2)=C(O)C2(O)C(=O)C3=C(O)c4c(O)cccc4C(C)(O)C3CC12 (configuration not stated)", "> 100 µM"],
  ["O=C(NN1C(=O)C(Cl)C1c1ccc(O)cc1)c1ccccc1O (configuration not stated)", "33.5 µM"],
  ["CC(C)NCCCC(C)Nc1ccnc2ccc3nn(C)nc3c12 (configuration not stated)", "> 100 µM"],
  ["NC(=S)N/N=C1\\CCCCc2ccccc21", "> 10 µM"],
  ["[N-]=[N+]=Nc1c(Cc2ccccc2)c(=O)oc2ccccc12", "> 100 µM"],
  ["N[C@]1(C(=O)O)C[C@@H]2C(Br)=NO[C@@H]2C1", "> 100 µM"],
  ["c1ccc2c(c1)SC1=C(SC(=C3SC4=C(S3)Sc3ccccc3S4)S1)S2", "> 100 µM"],
  ["O=C(Nc1nc(-c2ccc(Cl)cc2)cs1)c1cc(-c2ccc(Br)cc2)nc2ccc(Cl)cc12", "67.1 µM"],
  ["COc1ccc(/C=C2\\Oc3cc(OC(C)=O)ccc3C2=O)cc1", "> 100 µM"],
  ["Cc1ccc(-n2c(=O)c3nn4c(=O)n(-c5ccc(C)cc5)c(=O)c4nn3c2=O)cc1", "> 100 µM"],
  ["COC1/C=C\\C=C(/C)C(=O)NC2=CC(=O)C(N)=C(CC(C)CC(OC)C(O)C(C)C=C(C)C1OC(N)=O)C2=O (configuration not stated)", "> 100 µM"],
  ["Clc1ccc(OCc2nn3c(CCCCc4nnc5sc(COc6ccc(Cl)cc6Cl)nn45)nnc3s2)c(Cl)c1", "> 100 µM"],
  ["O=c1c(-c2ccccc2)c2n(c3ccccc13)CCN2", "> 100 µM"],
  ["COc1cc2c(cc1OCCCCCn1c(-c3ccc(OCc4ccccc4)cc3)nc3cc(N4CCOCC4)ccc31)N=C[C@@H]1CCCN1C2=O", "> 69.3 µM"],
  ["CN(C)/C=C1\\CCc2ccc([N+](=O)[O-])cc2C1=O", "> 100 µM"],
  ["CC(C)CC(NC(=O)OC(C)(C)C)C(=O)NC(CC(=O)OCc1ccccc1)C(N)=O (stereo not drawn) (Boc-Leu-Asp(OBn)-NH2; configuration not given here)", "> 100 µM"],
  ["O=C(c1nc2ccc(Cl)cc2[nH]c1=O)C(O)c1ccccc1 (configuration not stated)", "> 100 µM"],
  ["CCCCCCCCCCS(=O)CC(CO)NC(=O)/C=C/c1c(C)[nH]c(=O)[nH]c1=O (configuration not stated)", "27 µM"],
  ["O=C(Cc1nc2ccccc2o1)C(=O)Nc1ccccc1C(F)(F)F", "> 100 µM"],
  ["CN(CCCCCl)P(=O)(OCC1=CC(=O)c2ccccc2C1=O)OC[C@H]1O[C@@H](n2cc(F)c(=O)[nH]c2=O)C[C@@H]1O (some centres not stated)", "18.3 µM"],
  ["COCOc1cc(OCOC)cc(C(=O)Oc2ccccc2)c1", "> 100 µM"],
  ["O=C(CCc1n[nH]c(=S)o1)Nc1ccc(Cl)cc1Cl", "> 100 µM"],
  ["O=C(CSc1nnc(SCC(=O)NN=C2CCCCC2)s1)NN=C1CCCCC1", "> 100 µM"],
  ["CC(=O)OC1C2CCC1C1C2N=NN1c1ccc([N+](=O)[O-])cc1 (configuration not stated)", "> 100 µM"]
]}
